- ASSAY_SYSTEM: SaHPPK (Staphylococcus aureus)
- METHOD_SUMMARY: SPR binding to SaHPPK
- TEST_CONDITIONS: SPR, in the presence of 10 mM Mg2+/1 mM ATP; 293 K; read-out: K D b
MEASURE_NAME: Kd (µM)
Number only, in µM; omit the unit.

Determine its reported Kd: Nc1nc2nc(S)n(CC(=O)O)c2c(=O)[nH]1 [21b, 2-(8-Mercaptoguanin-7-yl)acetic acid]
140

Determine its reported Kd: CCn1c(S)nc2c(=O)[nH]c(N)nc21 [15b, 8-Mercapto-9-ethylguanine]
340

Determine its reported Kd: CNc1nc2nc(N)[nH]c(=O)c2[nH]1 [10a, 8-(Methylamino)guanine]
108

Determine its reported Kd: Nc1nc2c(nc(S)n2Cc2ccccc2)c(=O)[nH]1 [15c, 8-Mercapto-9-benzylguanine]
201

Determine its reported Kd: NCCCn1c(S)nc2nc(N)[nH]c(=O)c21 [21d, 7-(3-Aminopropyl)-8-mercaptoguanine]
121

Determine its reported Kd: NCCn1c(S)nc2nc(N)[nH]c(=O)c21 [21c, 7-(2-Aminoethyl)-8-mercaptoguanine]
160

###

- ASSAY_SYSTEM: SaHPPK (Staphylococcus aureus)
- METHOD_SUMMARY: SPR binding to SaHPPK
- TEST_CONDITIONS: SPR, in the presence of 10 mM Mg2+; 293 K; read-out: K D a
MEASURE_NAME: Kd (µM)
Number only, in µM; omit the unit.

As a guide, the following entries are already answered.
COMPOUND: NCCCn1c(S)nc2nc(N)[nH]c(=O)c21 [21d, 7-(3-Aminopropyl)-8-mercaptoguanine]
QUANTITY_UNIT: µM
Kd: 25.9
--
COMPOUND: CCn1c(S)nc2c(=O)[nH]c(N)nc21 [15b, 8-Mercapto-9-ethylguanine]
QUANTITY_UNIT: µM
Kd: 190
--
COMPOUND: NCCn1c(S)nc2nc(N)[nH]c(=O)c21 [21c, 7-(2-Aminoethyl)-8-mercaptoguanine]
QUANTITY_UNIT: µM
Kd: 26.4

# context switch: different compound, same Kd
Determine its reported Kd: Nc1nc2nc(S)n(CCO)c2c(=O)[nH]1 [21a, 7-(2-Hydroxyethyl)-8-mercaptoguanine]
12.3

###

- ASSAY_SYSTEM: SaHPPK (Staphylococcus aureus, UniProt A0A0H3JXR3)
- Sequence (A0A0H3JXR3 entry or part of it): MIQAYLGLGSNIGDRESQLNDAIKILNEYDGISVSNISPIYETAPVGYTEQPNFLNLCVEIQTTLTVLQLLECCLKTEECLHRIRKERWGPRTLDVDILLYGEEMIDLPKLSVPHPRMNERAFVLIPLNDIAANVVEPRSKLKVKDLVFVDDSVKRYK
- METHOD_SUMMARY: SPR binding to SaHPPK
- TEST_CONDITIONS: SPR, in the presence of 10 mM Mg2+/1 mM ATP; 293 K; read-out: K D b
MEASURE_NAME: pKd
In textbook form, pKd equals minus log to base ten of the concentration in mol/L.

As a guide, the following entries are already answered.
MOLECULE: Nc1nc2c(nc(S)n2CCc2ccccc2)c(=O)[nH]1 [15d, 8-Mercapto-9-phenethylguanine]
pKd: 3.29

MOLECULE: Cn1c(S)nc2c(=O)[nH]c(N)nc21 [15a]
pKd: 3.39

# context switch: different molecule, same pKd
For SaHPPK (Staphylococcus aureus, UniProt A0A0H3JXR3), give the measured pKd of the entry Nc1nc2nc(S)n(CCO)c2c(=O)[nH]1 [21a, 7-(2-Hydroxyethyl)-8-mercaptoguanine]
3.89
